Target: T1, CD3 epsilon homodimer protein (UniProt P07766 23-126)
T1 construct: also called CD3 (CD3 epsilon)
T1 sequence (P07766 23-126): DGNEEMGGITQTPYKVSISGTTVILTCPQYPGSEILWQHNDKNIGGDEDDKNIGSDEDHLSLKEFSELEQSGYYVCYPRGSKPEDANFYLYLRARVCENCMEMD
Test: SPR, antibody over immobilised CD3e homodimer;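 further: SPR at 25 °C with CD3 epsilon homodimer amine-coupled to a CM4 sensor chip and antibody flowed over as analyte in HBS-EP+ running buffer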
Reported Property: KD ratio to GLS3000
Answer with a bare number; do not write a unit.

So what does the record say about KD ratio to GLS3000 for CE115HA000/GLS3000 N53K (antibody, IgG1, name in Kabat numbering, V domains shown, one-arm IgG1) VH: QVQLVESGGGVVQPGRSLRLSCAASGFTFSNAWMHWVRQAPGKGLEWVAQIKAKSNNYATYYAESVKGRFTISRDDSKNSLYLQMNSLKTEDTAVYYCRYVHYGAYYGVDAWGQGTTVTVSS VL: DIVMTQSPLSLPVTPGEPASISCRSSQSLVHSNRNTYLHWYQQKPGQAPRLLIYKVSKRFSGVPDRFSGSGSGTDFTLKISRVEAEDVGVYYCGQGTQVPYTFGQGTKLEIK ?
1.05

So what does the record say about KD ratio to GLS3000 for CE115HA000/GLS3000 Y32P (antibody, IgG1, name in Kabat numbering, V domains shown, one-arm IgG1) VH: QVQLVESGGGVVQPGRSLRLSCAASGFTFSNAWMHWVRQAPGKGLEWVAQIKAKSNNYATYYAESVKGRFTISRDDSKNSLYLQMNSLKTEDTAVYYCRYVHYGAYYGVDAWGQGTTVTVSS VL: DIVMTQSPLSLPVTPGEPASISCRSSQSLVHSNRNTPLHWYQQKPGQAPRLLIYKVSNRFSGVPDRFSGSGSGTDFTLKISRVEAEDVGVYYCGQGTQVPYTFGQGTKLEIK ?
62

So what does the record say about KD ratio to GLS3000 for CE115HA000/GLS3000 K50P (antibody, IgG1, name in Kabat numbering, V domains shown, one-arm IgG1) VH: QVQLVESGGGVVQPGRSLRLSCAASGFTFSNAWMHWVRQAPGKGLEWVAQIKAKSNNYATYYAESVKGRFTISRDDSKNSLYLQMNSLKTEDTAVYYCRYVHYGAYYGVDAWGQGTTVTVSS VL: DIVMTQSPLSLPVTPGEPASISCRSSQSLVHSNRNTYLHWYQQKPGQAPRLLIYPVSNRFSGVPDRFSGSGSGTDFTLKISRVEAEDVGVYYCGQGTQVPYTFGQGTKLEIK ?
27.7

So what does the record say about KD ratio to GLS3000 for CE115HA000/GLS3000 S25D (antibody, IgG1, name in Kabat numbering, V domains shown, one-arm IgG1) VH: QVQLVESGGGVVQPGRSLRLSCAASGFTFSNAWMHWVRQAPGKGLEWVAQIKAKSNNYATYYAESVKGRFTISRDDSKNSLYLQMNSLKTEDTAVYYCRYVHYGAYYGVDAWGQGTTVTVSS VL: DIVMTQSPLSLPVTPGEPASISCRDSQSLVHSNRNTYLHWYQQKPGQAPRLLIYKVSNRFSGVPDRFSGSGSGTDFTLKISRVEAEDVGVYYCGQGTQVPYTFGQGTKLEIK ?
8.86

So what does the record say about KD ratio to GLS3000 for CE115HA000/GLS3000 T92E (antibody, IgG1, name in Kabat numbering, V domains shown, one-arm IgG1) VH: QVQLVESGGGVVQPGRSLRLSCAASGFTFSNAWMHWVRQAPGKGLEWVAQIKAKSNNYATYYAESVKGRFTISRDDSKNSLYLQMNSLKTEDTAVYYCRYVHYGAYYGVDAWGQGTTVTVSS VL: DIVMTQSPLSLPVTPGEPASISCRSSQSLVHSNRNTYLHWYQQKPGQAPRLLIYKVSNRFSGVPDRFSGSGSGTDFTLKISRVEAEDVGVYYCGQGEQVPYTFGQGTKLEIK ?
19.6
